This collection of values is drawn from ChEMBL document CHEMBL4325931.

- Organism: Homo sapiens
- protocolNotes: Selectivity ratio of Ki for recombinant human His6-tagged HexB expressed in Pichia pastoris to Ki for recombinant human OGA expressed in Escherichia coli BL21 (DE3)
measuredEndpoint: Ratio Ki

1. CC(=O)N[C@@H]1[C@@H](O)[C@H](O)[C@@H](CO)O[C@H]1SCCCNCCCN1C(=O)c2cccc3c(Br)ccc(c23)C1=O = 2
2. CC(=O)N[C@@H]1[C@@H](O)[C@H](O)[C@@H](CO)O[C@H]1SCCNCCCN1C(=O)c2cccc3c(Br)ccc(c23)C1=O = 2
3. CC(=O)N[C@@H]1[C@@H](O)[C@H](O)[C@@H](CO)O[C@H]1SCCCNCCN1C(=O)c2cccc3c(Cl)ccc(c23)C1=O = 2.3

----------
- measuredOn: Protein O-GlcNAcase (Homo sapiens)
- protocolNotes: Inhibition of recombinant human OGA expressed in Escherichia coli BL21 (DE3) at 20 uM using 4-Mu-GlcNAc as substrate preincubated for 10 mins followed by substrate addition and measured after 30 mins by fluorescence assay relative to control
measuredEndpoint: inhibition (%)

Take a look at these entries with their results.
1. CC(=O)N[C@@H]1[C@@H](O)[C@H](O)[C@@H](CO)O[C@H]1SCCNCCCN1C(=O)c2cccc3c(Br)ccc(c23)C1=O = 84.7
2. CC(=O)N[C@@H]1[C@@H](O)[C@H](O)[C@@H](CO)O[C@H]1SCCNCCN1C(=O)c2cccc3c([N+](=O)[O-])ccc(c23)C1=O = 25.1
3. CC(=O)N[C@@H]1[C@@H](O)[C@H](O)[C@@H](CO)O[C@H]1SCCCNCCCN1C(=O)c2cccc3c(N4CCCCC4)ccc(c23)C1=O = 49.1
4. CC(=O)N[C@@H]1[C@@H](O)[C@H](O)[C@@H](CO)O[C@H]1SCCCNCCN1C(=O)c2cccc3c(N(C)C)ccc(c23)C1=O = 26.6
5. CC(=O)N[C@@H]1[C@@H](O)[C@H](O)[C@@H](CO)O[C@H]1SCCCNCCCN1C(=O)c2cccc3c(Br)ccc(c23)C1=O = 59.2
6. CC(=O)N[C@@H]1[C@@H](O)[C@H](O)[C@@H](CO)O[C@H]1SCCCNCCN1C(=O)c2cccc3c(Cl)ccc(c23)C1=O = 83.6
7. CC(=O)N[C@@H]1[C@@H](O)[C@H](O)[C@@H](CO)O[C@H]1SCCNCCCN1C(=O)c2cccc3c(Cl)ccc(c23)C1=O = 83.3
8. CC(=O)N[C@@H]1[C@@H](O)[C@H](O)[C@@H](CO)O[C@H]1SCCNCCN1C(=O)c2cccc3c(N(C)C)ccc(c23)C1=O = 32.6

a = CC(=O)N[C@@H]1[C@@H](O)[C@H](O)[C@@H](CO)O[C@H]1SCCCNCCN1C(=O)c2cccc3c([N+](=O)[O-])ccc(c23)C1=O
b = CC(=O)N[C@@H]1[C@@H](O)[C@H](O)[C@@H](CO)O[C@H]1SCCCNCCCN1C(=O)c2cccc3c(Cl)ccc(c23)C1=O
c = CC(=O)N[C@@H]1[C@@H](O)[C@H](O)[C@@H](CO)O[C@H]1SCCNCCCN1C(=O)c2cccc3c(N(C)C)ccc(c23)C1=O
Qu. Sort the compounds on inhibition; start with the lowest figure. Please reply with the labels ordered as requested. Many thanks.
Ans. a, c, b

----------
- Species: Homo sapiens
- protocolNotes: Selectivity ratio of Ki for recombinant human His6-tagged HexB expressed in Pichia pastoris to Ki for recombinant human OGA expressed in Escherichia coli BL21 (DE3)
measuredEndpoint: Ratio Ki

Take a look at these entries with their results.
1. CC(=O)N[C@@H]1[C@@H](O)[C@H](O)[C@@H](CO)O[C@H]1SCCNCCCN1C(=O)c2cccc3c(N4CCCCC4)ccc(c23)C1=O = > 167
2. CC(=O)N[C@@H]1[C@@H](O)[C@H](O)[C@@H](CO)O[C@H]1SCCNCCCN1C(=O)c2cccc3c([N+](=O)[O-])ccc(c23)C1=O = > 12

Qu. Quick check: Ratio Ki of CC(=O)N[C@@H]1[C@@H](O)[C@H](O)[C@@H](CO)O[C@H]1SCCCNCCN1C(=O)c2cccc3c(N4CCCCC4)ccc(c23)C1=O ?
Ans. > 31.2
